Each entry below carries its reported Km.
- ASSAY_TARGET: GST-HsPRMT7 (Homo sapiens, UniProt Q9NVM4)
- Construct: full-length human PRMT7 (residues 1–692); 34693; host or cells: E. coli BL21 DE3
- PROTOCOL_DESCRIPTION: Michaelis-Menten kinetics of peptide substrate methylation (P81 phosphocellulose paper assay)
- Format: biochemical
- PROTOCOL_CONDITIONS: +130 mM KCl; apparent km; 5 μg GST-HsPRMT7, various peptide concentrations, 0.14 μM [3H]-AdoMet, 60 min, 25°C, pH 9.5; Michaelis-Menten fit, triplicates (Fig 8); read-out: km
READOUT: Km (µM)

* Ac-KKGGRKRGGKKY-NH2 [synthetic RXR peptide with lysine within the motif] | 6.9
* Ac-KKDGKKRKRSRKESY-NH2 [Hs H2B (23–37), synthetic peptide of amino acids 23–37 of human histone H2B, PRMT7 substrate used as positive control, reference compound] | 17
* Ac-KKGGRGRGGKKY-NH2 [synthetic peptide with an RGR motif flanked by glycine and lysine residues] | 6.2
* Ac-KKGGRGRKGKKY-NH2 [synthetic RXR peptide with an additional lysine after the RGR motif] | 2.4
* Ac-KKGKRGRGGKKY-NH2 [synthetic RXR peptide with an additional lysine before the RGR motif] | 3.3

---

- ASSAY_TARGET: GST-HsPRMT7 (Homo sapiens, UniProt Q9NVM4)
- Construct: full-length human PRMT7 (residues 1–692); 34693; host or cells: E. coli BL21 DE3
- PROTOCOL_DESCRIPTION: Michaelis-Menten kinetics of peptide substrate methylation (P81 phosphocellulose paper assay)
- Type: biochemical
- PROTOCOL_CONDITIONS: no added salt; 5 μg GST-HsPRMT7, 0.14 μM [3H]-AdoMet, 60 min, 25°C; GraphPad Prism fit; read-out: Km, Michaelis-Menten best-fit value, Fig7
Note to self: Km under 0.7 µM means TRUE, ties and anything higher get FALSE.

- Ac-KKGGRKRGGKKY-NH2 [synthetic RXR peptide with lysine within the motif]: FALSE
- Ac-KKGGRGRKGKKY-NH2 [synthetic RXR peptide with an additional lysine after the RGR motif]: TRUE
- Ac-KKGGRERGGKKY-NH2 [synthetic RXR peptide with glutamate within the motif]: TRUE
- Ac-KKGKRGRGGKKY-NH2 [synthetic RXR peptide with an additional lysine before the RGR motif]: FALSE
- Ac-KKGGRGGGGKKY-NH2 [Mono R, synthetic peptide with a single arginine flanked by glycine and lysine residues]: TRUE

---

- ASSAY_TARGET: GST-HsPRMT7 (Homo sapiens, UniProt Q9NVM4)
- Construct: full-length human PRMT7 (residues 1–692); 34693; host or cells: E. coli BL21 DE3
- Sequence (Q9NVM4 1-692): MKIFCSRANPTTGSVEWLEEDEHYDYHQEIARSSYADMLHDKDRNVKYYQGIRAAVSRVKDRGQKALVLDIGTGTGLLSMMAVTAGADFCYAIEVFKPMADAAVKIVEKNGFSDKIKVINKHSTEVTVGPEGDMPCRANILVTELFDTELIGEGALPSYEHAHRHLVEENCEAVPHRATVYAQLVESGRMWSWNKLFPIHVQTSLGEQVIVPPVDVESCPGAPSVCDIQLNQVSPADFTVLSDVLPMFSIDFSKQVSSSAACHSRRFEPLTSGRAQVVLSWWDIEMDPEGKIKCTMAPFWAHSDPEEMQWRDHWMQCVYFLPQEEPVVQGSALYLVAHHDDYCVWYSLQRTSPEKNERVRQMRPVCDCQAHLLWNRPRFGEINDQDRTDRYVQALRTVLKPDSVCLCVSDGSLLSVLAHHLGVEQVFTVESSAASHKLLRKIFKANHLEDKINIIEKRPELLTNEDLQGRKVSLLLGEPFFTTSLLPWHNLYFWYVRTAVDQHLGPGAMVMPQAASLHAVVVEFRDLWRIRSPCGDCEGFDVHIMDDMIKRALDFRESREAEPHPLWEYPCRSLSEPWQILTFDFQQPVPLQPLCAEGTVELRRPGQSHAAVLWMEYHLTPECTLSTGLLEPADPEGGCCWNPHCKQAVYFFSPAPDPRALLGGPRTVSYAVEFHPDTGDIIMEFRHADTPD
- PROTOCOL_DESCRIPTION: Michaelis-Menten kinetics of peptide substrate methylation (P81 phosphocellulose paper assay)
- Assay type: biochemical
- PROTOCOL_CONDITIONS: no added salt; apparent km of peptide substrate; 5 μg GST-HsPRMT7, various peptide concentrations, 0.14 μM [3H]-AdoMet, 60 min, 25°C, pH 9.5; Michaelis-Menten fit, triplicates (Fig 8); read-out: km
- Method: In vitro methylation assays were performed with GST-HsPRMT7, the indicated substrate protein or peptide, and 1.4 μM S-adenosyl-L-[methyl-^3H]methionine ([^3H]-AdoMet; PerkinElmer cat no. NET155V), prepared from diluting a stock of 7.0 μM [^3H]-AdoMet (81.9 Ci/mmol, 1 mCi/mL in 9:1 10 mM H2SO4:EtOH, v/v) in 10 mM HCl. All reactions were performed using distilled water buffered with 50 mM potassium HEPES, pH 9.5 and 1 mM DTT, reaching a final reaction volume of 30 μL. […]
Each entry below carries its reported Km.
READOUT: Km (nM)

* Ac-KKGGRGRGGKKY-NH2 [synthetic peptide with an RGR motif flanked by glycine and lysine residues] | 700
* Ac-KKGGRKRGGKKY-NH2 [synthetic RXR peptide with lysine within the motif] | 600
* Ac-KKGKRGRGGKKY-NH2 [synthetic RXR peptide with an additional lysine before the RGR motif] | 600
* Ac-KKGGRGRKGKKY-NH2 [synthetic RXR peptide with an additional lysine after the RGR motif] | 500
